# Tested System: Rat Hepatic V1 Receptors (Rattus norvegicus)
# Construct: Rat liver plasma membranes expressing the vasopressin V1 receptor subtypes; from tissue; host or cells: rat liver plasma membranes
# Assay: Binding Assay to Rat Hepatic V1 Receptors
Items are presented alongside their recorded IC50.
Result Type: IC50 (µM)

[[record]]
structure_smiles = "O=C(c1ccc(NP(=O)(Oc2ccccc2)Oc2ccccc2)cc1)N1Cc2cccn2Cc2ccccc21"
experimental_result = 0.16

[[record]]
structure_smiles = "Cc1ccc(F)cc1C(=O)Nc1ccc(C(=O)N2Cc3cccn3Cc3ccccc32)c(C)c1"
experimental_result = 0.12


----------
Items are presented alongside their recorded pIC50.
# Tested System: Rat Hepatic V1 Receptors (Rattus norvegicus, UniProt P30560)
# Construct: Rat liver plasma membranes expressing the vasopressin V1 receptor subtypes; from tissue; host or cells: rat liver plasma membranes
# Sequence (P30560 whole entry): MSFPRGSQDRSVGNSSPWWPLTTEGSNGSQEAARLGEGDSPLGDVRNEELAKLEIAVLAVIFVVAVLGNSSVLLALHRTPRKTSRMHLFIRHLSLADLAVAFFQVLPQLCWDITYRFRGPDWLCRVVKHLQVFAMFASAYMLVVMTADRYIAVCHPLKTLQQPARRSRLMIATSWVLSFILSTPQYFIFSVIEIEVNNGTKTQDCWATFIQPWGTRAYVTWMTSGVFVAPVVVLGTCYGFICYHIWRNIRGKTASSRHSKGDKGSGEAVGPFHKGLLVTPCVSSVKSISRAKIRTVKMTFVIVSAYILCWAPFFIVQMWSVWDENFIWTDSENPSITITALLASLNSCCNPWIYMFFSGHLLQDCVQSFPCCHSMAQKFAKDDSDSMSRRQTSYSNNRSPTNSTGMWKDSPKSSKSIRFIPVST
# Assay: Binding Assay to Rat Hepatic V1 Receptors
# Assay Setup: rat liver membranes; read-out: V1 IC50
pIC50: −log10 of the molar value.
Result Type: pIC50

[[record]]
compound = "O=C(Nc1ccc(C(=O)N2Cc3ccnn3Cc3ccccc32)cc1)c1ccc(Cl)cc1Cl [Example 217]"
tested_system = "Rat Hepatic V1 Receptors (Rattus norvegicus, UniProt P30560)"
experimental_result = 7.17

[[record]]
compound = "Cc1c(F)cccc1C(=O)Nc1ccc(C(=O)N2Cc3cccn3Cc3ccccc32)c(Cl)c1 [Example 481]"
tested_system = "Rat Hepatic V1 Receptors (Rattus norvegicus, UniProt P30560)"
experimental_result = 6.00

[[record]]
compound = "Cc1ccsc1C(=O)Nc1ccc(C(=O)N2Cc3cccn3Cc3ccccc32)cc1 [Example 5]"
tested_system = "Rat Hepatic V1 Receptors (Rattus norvegicus, UniProt P30560)"
experimental_result = 7.82

[[record]]
compound = "Cc1cccc(NC(=O)c2ccc(C(=O)N3Cc4cccn4Cc4ccccc43)cc2)c1C [Example 485]"
tested_system = "Rat Hepatic V1 Receptors (Rattus norvegicus, UniProt P30560)"
experimental_result = 6.62

[[record]]
compound = "Cc1cc(C(=O)N2Cc3cccn3Cc3ccccc32)ccc1NC(=O)c1ccccc1C [Example 96]"
tested_system = "Rat Hepatic V1 Receptors (Rattus norvegicus, UniProt P30560)"
experimental_result = 7.25

[[record]]
compound = "O=C(Nc1ccc(C(=O)N2Cc3cccn3-c3ccccc32)cc1)c1ccc(Cl)cc1Cl [Example 17]"
tested_system = "Rat Hepatic V1 Receptors (Rattus norvegicus, UniProt P30560)"
experimental_result = 5.92

[[record]]
compound = "O=C(Nc1ccc(C(=O)N2Cc3cccn3Cc3ccccc32)cc1)c1cc(Cl)cc(Cl)c1Cl [Example 599]"
tested_system = "Rat Hepatic V1 Receptors (Rattus norvegicus, UniProt P30560)"
experimental_result = 7.34

[[record]]
compound = "O=C(Nc1ccc(C(=O)N2Cc3cccn3Cc3ccccc32)c(Cl)c1)c1ccc(Cl)cc1Cl [Example 471]"
tested_system = "Rat Hepatic V1 Receptors (Rattus norvegicus, UniProt P30560)"
experimental_result = 7.35


----------
# Test system: Vasopressin V1
# Assay: Vasopressin V1 Antagonist Activity in Conscious Rats (vasopressin vasopressor response)
# Format: in vivo, rat
# Assay Setup: 30 mg/kg i.v.
Result Type: Time (of max. % inhibition)

[[record]]
compound = "O=C(Nc1ccc(C(=O)N2Cc3cccn3Cc3ccccc32)c(Cl)c1)c1ccc(F)cc1Cl"
experimental_result = "180 min"

[[record]]
compound = "Cc1ccccc1C(=O)Nc1c(C)cc(C(=O)N2Cc3cccn3Cc3ccccc32)cc1C"
experimental_result = "90 min"

[[record]]
compound = "COc1ccccc1C(=O)Nc1ccc(C(=O)N2Cc3cccn3Cc3ccccc32)cc1"
experimental_result = "120 min"

[[record]]
compound = "O=C(Nc1ccc(C(=O)N2Cc3cccn3Cc3ccccc32)cc1)C1CCCO1 (stereo not shown)"
experimental_result = "60 min"

[[record]]
compound = "O=C(Nc1ccc(C(=O)N2Cc3ccc(C(=O)C(F)(F)F)n3Cc3ccccc32)cc1)c1ccccc1C(F)(F)F"
experimental_result = "180 min"

[[record]]
compound = "O=C(Nc1ccc(C(=O)N2Cc3ccnn3Cc3ccccc32)cc1)c1ccc(Cl)cc1Cl"
experimental_result = "90 min"

[[record]]
compound = "COC(=O)c1ccc(C(=O)Nc2ccc(C(=O)N3Cc4cccn4Cc4ccccc43)cc2)cc1"
experimental_result = "120 min"

[[record]]
compound = "O=C(Nc1ccc(C(=O)N2Cc3cccn3Cc3ccccc32)cc1)c1cc(Cl)cc(Cl)c1Cl"
experimental_result = "90 min"

[[record]]
compound = "O=C(Nc1ccc(C(=O)N2Cc3cccn3Cc3ccccc32)cc1)c1cccc(C(F)(F)F)c1"
experimental_result = "60 min"

[[record]]
compound = "Cc1c(F)cccc1C(=O)Nc1ccc(C(=O)N2Cc3cccn3Cc3ccccc32)cc1"
experimental_result = "94 min"

[[record]]
compound = "Cc1cccc(C(=O)Nc2ccc(C(=O)N3Cc4cccn4Cc4ccccc43)c(Cl)c2)c1C"
experimental_result = "60 min"

[[record]]
compound = "O=C(c1ccc(NS(=O)(=O)c2ccccc2Cl)cc1)N1Cc2cccn2Cc2ccccc21"
experimental_result = "60 min"

[[record]]
compound = "O=C(Nc1ccc(C(=O)N2Cc3cccn3-c3ccccc32)cc1)c1ccc(Cl)cc1Cl"
experimental_result = "60 min"

[[record]]
compound = "O=C(Nc1ccc(C(=O)N2Cc3cccn3Cc3ccccc32)c(Cl)c1)c1ccccc1C(F)(F)F"
experimental_result = "300 min"

[[record]]
compound = "Cc1cccc(NC(=O)c2ccc(C(=O)N3Cc4cccn4Cc4ccccc43)cc2)c1C"
experimental_result = "60 min"

[[record]]
compound = "O=C(Nc1ccc(C(=O)N2Cc3cccn3Cc3ccccc32)c(Cl)c1)c1ccc(Cl)cc1Cl"
experimental_result = "90 min"

[[record]]
compound = "O=C(CN1CCOCC1)Nc1ccc(C(=O)N2Cc3cccn3Cc3ccccc32)cc1"
experimental_result = "120 min"

[[record]]
compound = "COC(=O)c1ccc2n1Cc1ccccc1N(C(=O)c1ccc(NC(=O)c3ccc(Cl)cc3Cl)cc1)C2"
experimental_result = "60 min"

[[record]]
compound = "Cc1ccccc1C(=O)Nc1ccc(C(=O)N2Cc3ccc(C(=O)C(F)(F)F)n3Cc3ccccc32)c(Cl)c1"
experimental_result = "90 min"

[[record]]
compound = "Cc1ccccc1C(=O)Nc1ccc(C(=O)N2Cc3cccn3Cc3ccccc32)cc1Cl"
experimental_result = "120 min"

[[record]]
compound = "CCOC(=O)c1ccc2n1Cc1ccccc1N(C(=O)c1ccc(NC(=O)c3ccc(Cl)cc3Cl)c(C)c1)C2"
experimental_result = "90 min"

[[record]]
compound = "Cc1ccccc1CC(=O)Nc1ccc(C(=O)N2Cc3cccn3-c3ccccc32)cc1"
experimental_result = "60 min"

